# studySystem: T1, RGS12, O14924
# T1 sequence (O14924 17-108, limits assumed, looked up): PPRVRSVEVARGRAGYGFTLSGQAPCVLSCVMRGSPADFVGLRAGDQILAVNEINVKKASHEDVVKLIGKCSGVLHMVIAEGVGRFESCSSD
# runDescription: holdup assay
# Parameters: key: below the threshold = too weak to quantify, mostly under pKd 3.1 to 4
# conditionDetails: plain residues with an end cap or a label only (N-terminal biotin on a linker: ttds)
experimentalEndpoint: pKd

SSLQSLETSV [ATP2B4, P23634]: below the threshold
RHTTSTETAV [HPV30-E6, P36809]: below the threshold
QRQARSETLV [HPV59-E6, Q81964]: below the threshold
SKPTRRETEV [HPV35-E6, P27228]: below the threshold
